Test: Displacement of [3H]alpha-BGT from nAChR in Apis mellifera (honeybee) head homogenates
Type: tissue-based
pIC50: −log10 of the molar value.
Items are presented alongside their recorded pIC50.
propertyName: pIC50

{"compound": "c1cncc(C2CCCCN2)c1 (configuration not stated)", "val": 5.70}
{"compound": "O=C1N(Cc2ccccc2)C2C[S+]3CCCC3C2N1Cc1ccccc1 (configuration not stated) [TRIMETHAPHAN CAMSYLATE]", "val": 6.10}
{"compound": "C/C(=N\\C#N)N(C)Cc1ccc(Cl)nc1", "val": 5.05}
{"compound": "O=[N+]([O-])/C=C1\\NCCN1Cc1ccc(Cl)nc1", "val": 7.59}
{"compound": "CNC1(c2ccccc2Cl)CCCCC1=O (configuration not stated)", "val": 3.63}
{"compound": "CN1CCC[C@@H]1c1cccnc1", "val": 4.66}
{"compound": "CSC(C)N1CCN/C1=C\\[N+](=O)[O-] (configuration not stated)", "val": 3.60}

---

Assay: Displacement of [3H]alpha-BGT from nAChR in Apis mellifera (honeybee) head homogenates
Format: tissue-based
Below: a set of entries, each annotated with reported IC50.

{"compound": "c1csc(C2(N3CCCCC3)CCCCC2)c1 [TENOCYCLIDINE]", "IC50 / µM": 1.38}
{"compound": "c1ccc(C2(N3CCCCC3)CCCCC2)cc1 [PHENCYCLIDINE]", "IC50 / µM": 2.55}
{"compound": "O=[N+]([O-])C=C1NCCCS1", "IC50 / µM": 1360}
{"compound": "CCN(Cc1ccc(Cl)nc1)/C(=C/[N+](=O)[O-])NC [NITENPYRAM]", "IC50 / µM": 61.3}

---

We begin with a simple list: items and their reported IC50.
Assay: Displacement of [3H]PCP from nAChR in Apis mellifera (honeybee0 head homogenates
Assay type: tissue-based
propertyName: IC50 (µM)

{"compound": "O=c1cccc2n1C[C@@H]1CNC[C@H]2C1", "resultUnits": "µM", "censorSymbol": ">", "val": 1000}
{"compound": "C[N+](C)(C)CCOC(N)=O", "resultUnits": "µM", "censorSymbol": ">", "val": 1000}
{"compound": "O=C1N(Cc2ccccc2)C2C[S+]3CCCC3C2N1Cc1ccccc1 (stereo unspecified) [TRIMETHAPHAN CAMSYLATE]", "resultUnits": "µM", "censorSymbol": "=", "val": 440}
{"compound": "O=[N+]([O-])/C=C1\\NCCN1Cc1ccc(Cl)nc1", "resultUnits": "µM", "censorSymbol": "=", "val": 953}
{"compound": "COc1cc2c3cc1Oc1cc(ccc1O)C[C@@H]1c4c(cc(OC)c(O)c4Oc4ccc(cc4)C[C@@H]3N(C)CC2)CC[N+]1(C)C", "resultUnits": "µM", "censorSymbol": "=", "val": 0.636}
{"compound": "O=[N+]([O-])/N=C1\\NCCN1Cc1ccc(Cl)nc1", "resultUnits": "µM", "censorSymbol": "=", "val": 386}
{"compound": "c1ccc(C2(N3CCCCC3)CCCCC2)cc1", "resultUnits": "µM", "censorSymbol": "=", "val": 0.029}
{"compound": "C[N+]1(C)CCN(c2ccccc2)CC1 [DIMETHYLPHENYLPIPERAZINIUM IODIDE]", "resultUnits": "µM", "censorSymbol": "=", "val": 385}
{"compound": "CN(C)CCCN1c2ccccc2Sc2ccc(Cl)cc21", "resultUnits": "µM", "censorSymbol": "=", "val": 5.8}
{"compound": "CNC1(C)C2CCC(C2)C1(C)C (stereo unspecified)", "resultUnits": "µM", "censorSymbol": "=", "val": 8.98}
{"compound": "CN1CCC[C@@H]1c1cccnc1", "resultUnits": "µM", "censorSymbol": "=", "val": 35}
